MEASURED METRIC: melting point

Example results:
compound=CC(C)CNc1c([N+](=O)[O-])cnc2cc(Br)cnc12 meas_value="114 to 115 °C"
compound=CN(C)C(=O)Nc1cc(Cl)ccc1O meas_value="164 °C"
compound=Cn1cc(C(=O)NCc2ccc(Cl)cc2)c(=O)c2cc(CN3CCSCC3)ccc21 meas_value="215 to 219 °C"
compound="CC(Sc1ccc(NC(=O)NC(=O)c2ccccc2Cl)cc1)c1ccccc1 (stereo unspecified)" meas_value="226 °C"
compound="CC(C)C(NC(=O)c1ccc(-c2ccccc2)cc1)C(=O)O (stereo unspecified)" meas_value="168 °C"

Query :: Specify reported melting point for the compound shown: `COC(=O)[C@H](CC(C)C)NC(=O)c1ccco1`
Result :: 88 to 90 °C

Query :: Specify reported melting point for the compound shown: `Cc1cccc(C(=O)O)c1Nc1ccccc1C(=O)O`
Result :: 258 to 259 °C

Query :: Specify reported melting point for the compound shown: CCCCCCCCCCCCCCOC(=O)CCC1(CO)CCC(=O)O1 (stereo unspecified)
Result :: 59 °C

Query :: Specify reported melting point for the compound shown: `Nc1nc2ccccc2c2c1nc(O)n2CC1CCOCC1`
Result :: > 250 °C

Query :: Specify reported melting point for the compound shown: `N#CC(C#N)CC(=O)c1ccc(Cl)c(Cl)c1`
Result :: 142 to 145 °C

Query :: Specify reported melting point for the compound shown: `CCCc1c(OCCCCCCc2cccc(OCCCC(C)(C)C(=O)O)c2CCC(=O)O)ccc2c1OCCC2=O`
Result :: 85 to 87 °C

###

melting point values, listed per item

Query :: Specify reported melting point for the molecule shown: CCC(Oc1ccc(Cl)c(C)c1)C(=O)NCc1ccccc1 (stereo not given)
Result :: 95 to 97 °C

Query :: Specify reported melting point for the molecule shown: C#CCC1(c2ccccc2)Cc2cc(OCC(=O)O)c(Cl)c(Cl)c2C1=O (stereo not given)
Result :: 236 to 240 °C

Query :: Specify reported melting point for the molecule shown: `COc1ccc(-c2[nH]nc3c2C(=O)c2c(NC(=O)Cc4ccc(Cl)cc4)cccc2-3)cc1`
Result :: 238 °C

Query :: Specify reported melting point for the molecule shown: O=C(O)C1=Cc2c(ccc3occ(-c4ccc(Br)cc4)c23)OC1C(F)(F)F (stereo not given)
Result :: > 250 °C

Query :: Specify reported melting point for the molecule shown: `NCCC(O)(c1ccccc1)c1ccccc1`
Result :: 134 to 136 °C

###

MEASURED METRIC: melting point

compound="COc1cc(C=CC(C)=O)ccc1OCC1CO1 (stereo not given)" measured_metric="melting point" meas_value="123 to 124 °C"

Query :: Specify reported melting point for the compound shown: `CC(=O)CN1CCc2c(c(=O)oc3cc(C)c(C)cc23)C1`
Result :: 136 to 138 °C

Query :: Specify reported melting point for the compound shown: `CCCc1c(OCCCCCc2nnn[nH]2)ccc(C(C)=O)c1O`
Result :: 95 to 96 °C

Query :: Specify reported melting point for the compound shown: `CC(C)(Sc1ccccc1)C(=O)O`
Result :: 62 to 64 °C

###

melting point values, listed per item

Example results:
compound=CCOc1ccc2c(c1)n(C1CCCCC1)c(=O)n2S(=O)(=O)c1ccc(C(=O)NC(C)(C)C)cc1OC meas_value="252 °C"
compound="COC(=O)c1ccc(Cn2ccn(C3CCc4ccccc4C3)c2=S)cc1 (centres undefined)" meas_value="133 to 135 °C"
compound=CCCCc1ccc(CCCCCCC(=O)O)cc1 meas_value="32 to 33 °C"
compound=Cc1cc(CCCCCOc2c(C)cc(-c3noc(C)n3)cc2C)on1 meas_value="45 to 46 °C"
compound=CCn1cc(-c2ccccc2)nc(S(=O)(=O)Cc2ccc(Cl)cc2)c1=O meas_value="146 to 148 °C"

We now examine a further compound.
Query :: Specify reported melting point for the compound shown: `COc1ccc2c(cc(CCC(=O)O)n2S(=O)(=O)c2ccccc2)n1`
Result :: 136 to 139 °C

The measured values listed here are drawn from a melting point compilation (Tetko et al.; mined from patent text by program, amines drawn as free bases though some values may be those of a salt).
